Every entry's value here was drawn from PubChem BioAssay AID1159580.

Test: chemical genetic growth profiling, strain panel (AID 1159580);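 further: tested at 20 µM; growth read once vehicle control cultures reached saturation at 30 °C; 1 = growth at the plate median or of vehicle wells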
Conditions: S. cerevisiae deletion strains, growth OD, locus YJL157C, strain FAR1
Out of some 5,500 compounds screened, about 2,000 (36%) were called active. Inconclusive results (about 18%) are left out. No stated cut-off is given here; in the data, active means normalized growth mostly below about 0.91 (no sharp cut-off); inconclusive means no clear call, values can overlap the other calls; inactive means mostly above about 0.92. The list shows a part of the results.
Pick one: active, inactive

Record excerpt, results attached:
# Given Smiles, Assigned Category
measured = [
    ("N#C/C(=N/Nc1ccc(Cl)cc1)C(N)=S", "active"),
    ("NNC(=O)COc1ccc(C2SCCS2)cc1", "active"),
    ("O=C(NNc1c(Cl)cccc1Cl)c1ccc([N+](=O)[O-])o1", "inactive"),
]

GET /call?item= N#C/C(=N/Nc1ccc(Cl)cc1)C(=O)C1CC1 returns the recorded outcome of this test. inactive

For N#C/C(=C\C=C\c1ccccc1)c1nc2ccccc2[nH]1 , what call appears in the results of this test? inactive

Hi, do you know how CCCCc1ccc(N=CNO)c(C)c1 came out in this test? active

Which result was noted for this molecule in the test: Nc1ccccc1C(=O)N/N=C\c1cc(Cl)cc(Cl)c1O active

Hey, what did the test say about N#Cc1c(N)sc2c1CCc1ccccc1-2 ? active

Entry O=C(N/N=C\c1cc(Cl)cc(Cl)c1O)c1ccccc1Oc1ccccc1 : call = ? inactive

Write down the call the test reported for this molecule. Item: Cc1ccc(C(=O)Nc2ccc3ccccc3n2)cc1 inactive

Recorded test outcome, item Cc1nn(Cc2cccc(C(=O)O/N=C(/N)c3ccc(Cl)cc3)c2)c(C)c1Br inactive

Would you mind telling me which call this test gave CN(NC(=S)Nc1cc(Cl)ccc1Cl)c1ccc(C(F)(F)F)cc1[N+](=O)[O-] ? inactive

---

Item-by-item account of normalized growth
Experiment: chemical genetic growth profiling, strain panel (AID 1159580);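 further: tested at 20 µM; growth read once vehicle control cultures reached saturation at 30 °C; 1 = growth at the plate median or of vehicle wells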
Settings: S. cerevisiae deletion strains, growth OD, locus YGL253W, strain hxk2, stronger effect = lower value
In all, about 5,500 compounds went through this assay and about 2,000 (36%) were called active. Another 18% or so got no clear call; they are omitted. The list shows a part of the results.
Reply: number alone, nothing else.

What does the record list as normalized growth for O=C1OC(=O)C2C3CCC(O3)C12 (stereo not given) ? 1.03

Which value of normalized growth has been reported for COC(=O)C1=CO[C@@H](O[C@@H]2O[C@H](CO)[C@@H](O)[C@H](O)[C@H]2O)[C@@H]2[C@@H](C)[C@@H](O)C[C@H]12 in the records? 1.01

What does the record list as normalized growth for CCOC(=O)C1=C(C)NC(C)=C(C(=O)OC)C1c1cccc([N+](=O)[O-])c1 (stereo not given) ? 1

For CC(C(=O)O)c1ccc(N2Cc3ccccc3C2=O)cc1 (stereo not given) , what is its reported normalized growth? 1

I'd like to know its normalized growth. The molecule in question is FC(F)(F)COCC(F)(F)F 1.03

---

Test: chemical genetic growth profiling, strain panel (AID 1159580);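 further: tested at 20 µM; growth read once vehicle control cultures reached saturation at 30 °C; 1 = growth at the plate median or of vehicle wells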
Conditions: S. cerevisiae deletion strains, growth OD, locus YGR052W, strain FMP48
Hit rate of the full screen: of about 5,500 compounds, about 2,000 (36%) were called active. Not shown: some 18% with an inconclusive outcome. Cut-off read from the data, not from the text of the source: active = normalized growth mostly below about 0.91 (no sharp cut-off); inconclusive = no clear call, values can overlap the other calls; inactive = mostly above about 0.92. Some of the results follow.
Your answer must be one of the following: Yes for active, No for inactive

# Given Smiles, Assigned Category
measured = [
    ("O=C(SCc1c(Cl)cccc1Cl)c1ccc([N+](=O)[O-])o1", "Yes"),
    ("O=C1CSC(=Nc2cc(Cl)cc(Cl)c2)N1Cc1cccnc1", "No"),
    ("Cc1c(Cl)cccc1N=C1SCC(=O)N1Cc1ccco1", "No"),
    ("O=C(OCc1ccc(Oc2ccc(Cl)cc2Cl)c([N+](=O)[O-])c1)c1ccc([N+](=O)[O-])o1", "No"),
    ("O=C(NNc1c(Cl)cccc1Cl)c1ccc([N+](=O)[O-])o1", "No"),
]

Moving on to another compound below.
How was Fc1ccc(Nc2nc(-c3ccc(F)c(F)c3)cs2)c(F)c1 classified in this test? Yes
